Give GI50 for every item shown.
test system: NCI/ADR-RES ovarian; assay: NCI tumour cell line growth inhibition, 48 h

// returns GI50 for "C[N+](C)(CCCCCC[N+](C)(C)CCCN1C(=O)c2cc3ccccc3cc2C1=O)CCCN1C(=O)c2ccccc2C1=O" with NCI/ADR-RES ovarian; value = > 37500 nM

// returns GI50 for "CCN(CC)CCCCCCCNc1c2ccc(Cl)cc2nc2ccc(OC)cc12" with NCI/ADR-RES ovarian; value = 1030 nM

// returns GI50 for "CN(C)CCCNC(=O)c1cc(NC(=O)c2cc(NC(=O)c3cc(NC(=O)CCc4c[nH]c5ccccc45)cn3C)cn2C)cn1C" with NCI/ADR-RES ovarian; value = > 100000 nM

// returns GI50 for "COc1ccc(/C=C\c2cc(OC)c(OC)c(OC)c2)cc1OCC(=O)Nc1nc2ccc(C(F)(F)F)cc2s1" with NCI/ADR-RES ovarian; value = 2120 nM

// returns GI50 for "COc1ccc(-c2nc(-c3ccccc3)c(-c3ccccc3)n2C2CC2)cc1OC1CCCC1" with NCI/ADR-RES ovarian; value = 58600 nM

// returns GI50 for "Cc1[nH]c(/C=C2\C(=O)Nc3ccc(F)cc32)c(C)c1C(=O)NC[C@H](O)CN1CCOCC1" with NCI/ADR-RES ovarian; value = > 10000 nM

// returns GI50 for "COc1cc2c(/C=C3/C(=O)Nc4ccccc43)c(Cl)n(Cc3ccccc3[N+](=O)[O-])c2cc1C" with NCI/ADR-RES ovarian; value = 4710 nM

// returns GI50 for "CN(C)Cc1ccc(C(=O)Nc2ccc3ncnc(Nc4ccc(Oc5cccc(F)c5)c(Cl)c4)c3c2)cc1" with NCI/ADR-RES ovarian; value = 1670 nM

// returns GI50 for "S=C(N/N=C/c1ccccn1)Nc1ccccn1" with NCI/ADR-RES ovarian; value = 1740 nM

Hello, the source for this data is PubChem BioAssay (NCI), in case you need it.
